- Tested on: U251 CNS
- assay-protocol: NCI-60 one-dose screen, 48 h
- experimental-conditions: 10 µM unless noted
This is part of a sample that, as a whole, favours compounds with a hit. Of some 83,000 tested, about 20% had one in any assay. Activity calls are given as the source filed them. Rule for the calls: active = growth percent below 10; inactive = the rest.
Field 'call' accepts Y (active), N (inactive)

Use these answered entries as a reference point.
molecule=N#CN1CC[C@H](C(=O)Nc2cc3cc(C(N)=O)ccc3cn2)C1 assayed_target="U251 CNS" class_label=Y
molecule=Cc1cc(C)nc(SC2=C(Nc3cccc(Cl)c3)C(=O)N(Cc3ccccc3)C2=O)n1 assayed_target="U251 CNS" class_label=N
molecule=CCCCC[C@H]1C/C=C2/C(=O)C=C[C@@H]2C/C=C\CCCC(=O)O1 assayed_target="U251 CNS" class_label=Y

Incoming: What did the test return for `CCC#CC[C@H](O)C/C=C1/C(=O)C=C[C@@H]1C/C=C\CCCC(=O)OC` ?
Outgoing: Y

Incoming: What did the test return for CC(O)CN1CC(O)=C(c2nc3ccccc3s2)C1=N (stereo unspecified) ?
Outgoing: N

Incoming: What did the test return for `COc1ccccc1NS(=O)(=O)c1ccc2oc(SC(C)C)nc2c1` ?
Outgoing: N

###

- Tested on: COLO 205 colon
- assay-protocol: NCI-60 one-dose screen, 48 h
- experimental-conditions: 10 µM unless noted
This is part of a sample that, as a whole, favours compounds with a hit. Of some 83,000 tested, about 20% had one in any assay. Active and inactive are the calls of the source. Rule for the calls: active = growth percent below 10; inactive = the rest.
Field 'call' accepts true = active, false = inactive

Use these answered entries as a reference point.
molecule=COc1cccc(-c2nc3sccn3c2-c2ccnc(NCCCNS(=O)(=O)c3cccc(F)c3)c2)c1 class_label=false
molecule=CSc1nc(Nc2cccc(NC(=O)CCl)c2)c(C#N)c(-c2cccc([N+](=O)[O-])c2)n1 class_label=false
molecule=FC(F)(F)c1ccc(-c2cn3nc(-c4c[nH]c5ccc(Br)cc45)sc3n2)cc1 class_label=false
molecule=COc1ccc(CCNc2nc3c(c(=O)n(Cc4ccc(Br)cc4)c(=O)n3C)n2C)cc1OC class_label=false
molecule=COc1cc(-c2nn(C)nc2-c2cc3ccccc3s2)cc(OC)c1OC class_label=true
molecule=CN(C)c1ccc(N=Nc2ccccn2)c(O)c1 class_label=false
molecule=N#Cc1nnn(-c2ccc(S(N)(=O)=O)cc2)c1NCC(=O)c1ccccc1 class_label=false
molecule=CCCCN1CCCn2c1nc1c2c(=O)n(CCC)c(=O)n1CCC class_label=false

Incoming: What did the test return for OCC(O)c1nc2ccc3[nH]ncc3c2c2c1CCCC2 (stereo not given) ?
Outgoing: true

Incoming: What did the test return for `O=C(N/N=C/c1ccccc1O)c1ccccc1Nc1ccnc(C(F)(F)F)c1` ?
Outgoing: false

###

- System: CAKI-1 renal
- assay-protocol: NCI-60 one-dose screen, 48 h (100 = growth as untreated, 0 = no growth, -100 = all killed)
- experimental-conditions: 10 µM unless noted
About 83,000 compounds went through this panel and 20% of them were active in at least one assay; those are over-represented in the sample as a whole.
Quick rule for you: growth under 80% gets MET, anything else gets NOT MET.

Use these answered entries as a reference point.
smiles_repr=COc1cccc(/C=C2\Oc3cc(OCCN4CCCC4)ccc3C2=O)c1 assayed_target="CAKI-1 renal" class_label="NOT MET"
smiles_repr=CC(C)(O)c1cn(CCCCN2C(=O)C(=O)c3ccccc32)nn1 assayed_target="CAKI-1 renal" class_label="NOT MET"
smiles_repr=N#C/C(=C\c1ccc(-c2cc(C(F)(F)F)ccc2Cl)o1)c1nc(-c2ccco2)cs1 assayed_target="CAKI-1 renal" class_label="NOT MET"

Here is the next item to consider.
Incoming: Lab log: compare recorded growth with 80%; is it strictly lower for `CCN(CC)c1ccc(-c2cc(-c3cc(OC)c(OC)c(OC)c3)nc(N3CCOCC3)c2C#N)cc1` ?
Outgoing: MET
